procedure text: in vivo
condition info: Sprague-Dawley, rat, po, 10 mg/kg
recorded endpoint: bioavailability (%)
Please respond with the number in % and leave the unit unwritten.

Query block: What value of bioavailability has been reported for the following molecule? COc1cc2c(Nc3ccc(Oc4ccccc4)cc3)ncnc2cc1OCC1CCN(C)CC1
Result block: 9.33

----------
procedure text: in vivo
condition info: Sprague-Dawley, rat, iv, 1 mg/kg
recorded endpoint: Cmax (µg/mL)
Please respond with the number in µg/mL and leave the unit unwritten.

Query block: What value of Cmax has been reported for the following compound? COc1cc2c(Nc3ccc(Oc4ccccc4)cc3)ncnc2cc1OCC1CCN(C)CC1
Result block: 0.0696

----------
procedure text: in vivo
condition info: Sprague-Dawley, rat, iv, 1 mg/kg
recorded endpoint: half-life (h)
Please respond with the number in h and leave the unit unwritten.

Query block: What value of half-life has been reported for the following molecule? COc1cc2c(Nc3ccc(Oc4ccccc4)cc3)ncnc2cc1OCC1CCN(C)CC1
Result block: 1.97
